- System: COLO 205
- protocol-description: NCI tumour cell line growth inhibition, 48 h
Active and inactive are the calls of the source. Rule as the data show it: active = GI50 up to about 1.1 µM and inactive = higher.
Classes used: y (active), n (inactive)

- compound: "NC1(C(=O)O)CCc2ccc(N(CCCl)CCCl)cc2C1 (stereo not drawn)"
  class-assignment: "n"
- compound: "COc1cc2c(c(OC)c1OC)C(=O)[C@H](O)[C@H]2NC(N)=O"
  class-assignment: "n"
- compound: "CC12CC(=O)Nc3ccccc3N1C(c1ccccc1)=NO2 (stereo not drawn)"
  class-assignment: "n"
- compound: "CO[C@@H](c1ccccc1)[C@H](O)[C@@](O)(c1ccccc1)P(=O)(OC)OC"
  class-assignment: "n"
- compound: "CN(C)CC1CCC/C(=C\\c2ccc(OC(=O)/C=C/c3ccccc3)cc2)C1=O (stereo not drawn)"
  class-assignment: "n"
- compound: "OCCCN=C1CCCCC1"
  class-assignment: "n"
- compound: "N#CC(NNC(=O)Cc1ccccc1)c1ccccc1O (stereo not drawn)"
  class-assignment: "n"
- compound: "Cc1cc(C)n(-c2nc3ccccc3c(=O)[nH]2)n1"
  class-assignment: "n"
- compound: "COc1ccc(N2C(=O)C3C=CC(n4[nH]c(=O)n(Cc5ccccc5)c4=O)CC3C2=O)cc1 (stereo not drawn)"
  class-assignment: "n"
- compound: "Cc1nc(C)c(C(=O)Nc2cccc3c2C(=O)NC3=O)cc1C(=O)Nc1cccc2c1C(=O)NC2=O"
  class-assignment: "n"
- compound: "O=C(O)CCC(NC(=O)c1ccc(Nc2nc3cc(C(F)(F)F)ccc3nc2C(=O)O)cc1)C(=O)O (stereo not drawn)"
  class-assignment: "n"
- compound: "COc1cc2c(cc1OC)C(Cl)C(c1cc(OC)c(OC)c(OC)c1)=C2Cl (stereo not drawn)"
  class-assignment: "n"
- compound: "c1cncc(CNCc2cccnc2)c1"
  class-assignment: "n"
- compound: "COC(=O)C1CCC(=O)N1CN(C(C)=O)c1cc(OC)ccc1OC (stereo not drawn)"
  class-assignment: "n"
- compound: "CC[S+]([O-])c1c2cc(OC)ccc2nc2ccc(OC)cc12 (stereo not drawn)"
  class-assignment: "n"
- compound: "COc1ccc(NC(=S)N/N=C(\\C)c2nc3cccnc3[nH]2)cc1"
  class-assignment: "n"
- compound: "COc1cc2c3c(c4ccc(OC)c(OC)c4c2cc1OC)CN1CCC[C@@H]1C3 [TYLOCREBRINE]"
  class-assignment: "y"
- compound: "NC(=O)N/N=C(/Cc1nc2ccc(C(=O)c3ccccc3)cc2nc1O)C(=O)Nc1ccc(C(F)(F)F)cc1[N+](=O)[O-]"
  class-assignment: "n"
- compound: "COc1ccccc1NC(=O)C1=C(C)NC(C)=C(C(=O)Nc2ccccc2OC)C1c1ccco1"
  class-assignment: "n"
- compound: "CCn1nc(-c2ccccc2)c2c1N(C)c1ccccc1-n1c(-c3ccccc3)nnc1-2"
  class-assignment: "n"
- compound: "Cc1ccc(N(C=O)c2c([N+](=O)[O-])cc([N+](=O)[O-])c3c2=[N+]([O-])CN=3)cc1"
  class-assignment: "n"
- compound: "C=C(CS(=O)(=O)c1ccccc1)C(=O)OCC"
  class-assignment: "n"
- compound: "C[C@]12CCC(=O)C=C1CC[C@@H]1[C@@H]2[C@@H](O)C[C@@]2(C)[C@H]1CC[C@]2(O)C(=O)CO [HYDROCORTISONE]"
  class-assignment: "n"
- compound: "Cc1c(Cl)cccc1NC(=O)/C=C/c1ccccc1"
  class-assignment: "n"
- compound: "CC1=NN(C(=O)CC(=O)N(C(=O)c2ccccc2Cl)c2ccc(C)cc2)C(=O)C1/N=N/c1ccc([N+](=O)[O-])cc1 (stereo not drawn)"
  class-assignment: "n"
- compound: "COC(=O)c1cc(-c2c[nH]cc2C(=O)OCc2ccccc2)cn1S(=O)(=O)c1ccc(C)cc1"
  class-assignment: "n"
- compound: "CCN(CC)CCCCC1CCN(CC(=O)N2c3ccccc3NC(=O)CC2C)CC1 (stereo not drawn)"
  class-assignment: "n"
- compound: "CSC1NC(c2ccccc2)=C(C#N)C(=O)N1C1OCC(OC(C)=O)C(OC(C)=O)C1OC(C)=O (stereo not drawn)"
  class-assignment: "n"

Source: ChEMBL document CHEMBL1201862
